// GI50 lookup, one value per entry
# System: EKVX
# protocol-text: NCI tumour cell line growth inhibition, 48 h
Activity calls are given as the source filed them. Rule as the data show it: active = GI50 up to about 1.1 µM and inactive = higher.

Worked examples, 4 molecules total:
In plain terms, CC1CCC2(NC1)OC1CC3C4CC=C5CC(OC6OC(CO)C(OC7OC(C)C(O)C(O)C7O)C(O)C6OC6OC(C)C(O)C(O)C6O)CCC5(C)C4CCC3(C)C1C2C (stereo not given) has a documented GI50 of 2.5 µM (inactive)

In plain terms, O=C(NNC(=S)NCc1ccccc1)c1csc(NC(=S)NC2CCCCC2)n1 has a documented GI50 of 19.2 µM (inactive)

In plain terms, O=C(O)Cc1c(O)ccc2ccccc12 has a documented GI50 of > 100 µM (inactive)

In plain terms, NC(=O)SCC(=O)Nc1ccc2ncccc2c1 has a documented GI50 of > 100 µM (inactive)

Others:
In plain terms, c1csc(-c2csc(-c3cccs3)c2)c1 has a documented GI50 of 39.8 µM (inactive)

---

# Test system: 786-0
# protocol-text: NCI tumour cell line growth inhibition, 48 h
Calls of active or inactive are those of the source. No stated cut-off is given here; in the data, active = GI50 up to about 1.1 µM and inactive = higher.
readout-name: GI50

Worked examples, 2 compounds total:
In plain terms, O=c1[nH]c(-n2[nH]c3c(c2=O)CCCC3)nc(O)c1-c1ccccc1 has a documented GI50 of > 100 µM (inactive)

In plain terms, O=c1nc(N2CCCCC2)sc2[nH]c3ccccc3c12 has a documented GI50 of > 100 µM (inactive)

Others:
In plain terms, CCOC(=O)C(=O)/C(=C/NC(=S)c1ccncc1)C(=O)OCC has a documented GI50 of > 100 µM (inactive)

In plain terms, C[N+]1(CCN=C=NC2CCCCC2)CCOCC1 has a documented GI50 of > 100 µM (inactive)

In plain terms, COc1ccc(C(=O)Nc2ccccc2C#N)cc1 has a documented GI50 of > 100 µM (inactive)

In plain terms, Cn1c(=O)c2c(nc(NCCCCl)n2CC(=O)O)n(C)c1=O has a documented GI50 of > 100 µM (inactive)

In plain terms, Oc1ccc(Oc2cc3c(cc2Oc2ccc(O)cc2)-c2nc-3nc3[nH]c(nc4nc(nc5[nH]c(n2)c2cc(Oc6ccc(O)cc6)c(Oc6ccc(O)cc6)cc52)-c2cc(Oc5ccc(O)cc5)c(Oc5ccc(O)cc5)cc2-4)c2cc(Oc4ccc(O)cc4)c(Oc4ccc(O)cc4)cc32)cc1 has a documented GI50 of > 100 µM (inactive)

In plain terms, O=c1[nH]c2nc3ccccc3c(=O)n2/c1=C/c1ccccc1 has a documented GI50 of 25.8 µM (inactive)

In plain terms, COC(=O)C1=C(O)C(C(=O)OC)[C@]2(O)[C@H](C(=O)OC)[C@H]1C[C@@H](c1c(Cl)cccc1Cl)[C@H]2C(=O)OC (stereo partly drawn) has a documented GI50 of 1.73 µM (inactive)

In plain terms, CCCCCCOc1ccc(C(=O)NO)cc1 has a documented GI50 of 3.68 µM (inactive)

---

// GI50 lookup, one value per entry
# System: NCI-H522
# protocol-text: NCI tumour cell line growth inhibition, 48 h
Active and inactive are the calls of the source. Rule as the data show it: active = GI50 up to about 1.1 µM and inactive = higher.

Let me check: CCSC1=N/C(=C\c2ccc(N(C)C)cc2)C(Cl)=N1 , system NCI-H522, measured GI50 is > 100 µM (inactive)

Let me check: [O-][N+]1=C2CCC/C(=N/O)C2(O)C2CCCCC21N1CCOCC1 (configuration not stated) , system NCI-H522, measured GI50 is > 100 µM (inactive)

Let me check: CCOC(=O)N1c2ccccc2C(C)=CC(C)C1C (configuration not stated) , system NCI-H522, measured GI50 is 18.7 µM (inactive)

Let me check: Cn1c2ccccc2c2cc(-c3ccccc3)c3c(c21)C(=O)C=CC3=O , system NCI-H522, measured GI50 is 17.5 µM (inactive)

Others:
Let me check: N#CCCN(CCC#N)c1ccc(C(=N/c2ccc(Cl)cc2)/N=N/c2ccc(Cl)cc2)cc1 , system NCI-H522, measured GI50 is 17 µM (inactive)

Let me check: CSC1=C(C#N)C(=O)N(c2ccc(Cl)cc2)C(=O)C1C#N (configuration not stated) , system NCI-H522, measured GI50 is > 100 µM (inactive)
